Test system: Wnt stimulated TCF transcriptional activity, HEK293-TS 112 TCF reporter cell line
Experiment: Tankyrase 1 Assay (Example 119): Wnt3A-stimulated TOPbrite TCF luciferase reporter
Type: cell-based
Details: Compounds I-59 to I-144, procedure in Example 119 (0.5 ug/mL Wnt3A, 16 hours); read-out: TNKS1 (IC50)
pIC50: −log10 of the molar value.
# pIC50 >= 7 gives label 1, anything below gives label 0

Use these answered entries as a reference point.
| compound | label |
| --- | --- |
| COCCOc1cc(F)c(N2CCN(c3nc4c(cnn4CCCO)c(=O)[nH]3)CC2)c(F)c1 | label 1 |
| Cn1nccc1CN1CCN(c2nc3c(cnn3C)c(=O)[nH]2)CC1 | label 0 |
| CC(O)c1cc(F)c(N2CCN(c3nc4c(cnn4C)c(=O)[nH]3)CC2)c(F)c1 (centres unmarked) | label 1 |

Qu. I'd appreciate it if you could say whether `CCCn1ccc(C2(C)CCN(c3nc4c(cnn4C)c(=O)[nH]3)CC2)n1` has pIC50 at least equal to 7.
Ans. label 1

Qu. Could you tell me if the measured pIC50 of `COCCOc1cc(F)c(N2CCN(c3nc4c(cnn4CC(C)(C)O)c(=O)[nH]3)CC2)c(F)c1` reaches 7 or more?
Ans. label 0

Qu. Please check the record `Cn1ncc2c(=O)[nH]c(N3CCN(c4c(F)cc(OC5COC5)cc4F)CC3)nc21` and state if its pIC50 is at or above 7.
Ans. label 1

* * *

System: Wnt stimulated TCF transcriptional activity, HEK293-TS 112 TCF reporter cell line
Experiment: Tankyrase 1 Assay (Example 119): Wnt3A-stimulated TOPbrite TCF luciferase reporter
Format: cell-based
Conditions: Compounds I-59 to I-144, procedure in Example 119 (0.5 ug/mL Wnt3A, 16 hours); read-out: TNKS1 (IC50)
// classify: if (IC50 < 90 nM) condition met else condition not met

| compound | label |
| --- | --- |
| Cn1ncc2c(=O)[nH]c(N3CCN(c4c(F)cc(C(O)CO)cc4F)CC3)nc21 (stereo not drawn) | condition met |
| Cn1ncc2c(=O)[nH]c(N3CCN(c4c(F)cc(OCC5C[S+]([O-])C5)cc4F)CC3)nc21 (stereo not drawn) | condition met |
| Cn1ncc2c(=O)[nH]c(N3CCN(c4c(F)cc(OCCO)cc4F)CC3)nc21 | condition met |
| Cn1ncc2c(=O)[nH]c(N3CCC(C)(c4cc[nH]n4)CC3)nc21 | condition met |
| Cn1ncc2c(=O)[nH]c(N3CCC(c4[nH]ncc4S(C)(=O)=O)CC3)nc21 | condition met |

Qu. is_below(IC50, 90 nM) for Cn1ncc2c(=O)[nH]c(N3CCC(Cc4cccnc4)C3)nc21 (stereo not drawn) ?
Ans. condition not met

Qu. Just wondering, is IC50 of Cn1ncc2c(=O)[nH]c(N3CCN(c4c(F)cc(OC(CO)CCl)cc4F)CC3)nc21 (stereo not drawn) below 90 nM?
Ans. condition met

Qu. # check: IC50 < 90 nM for `Cn1ncc2c(=O)[nH]c(N3CCC(O)(c4ccc(F)cc4)CC3)nc21`
Ans. condition met

Qu. Threshold test, IC50 < 90 nM: Cn1ncc2c(=O)[nH]c(N3CCC(Cc4ccncc4)C3)nc21 (stereo not drawn)
Ans. condition not met

Qu. Regarding `Cn1ncc2c(=O)[nH]c(N3CCC(C(=O)N4CCCC4)CC3)nc21` , kindly confirm whether its IC50 is beneath 90 nM.
Ans. condition not met

The measurements presented in this section are drawn from patent US20130345215A1.
